# IC50 per entry
- target: C-C chemokine receptor type 6 (Homo sapiens) (UniProt P51684)
- protocol.details: potency against CXCR6 with APJ panel – cell-based, beta-arrestin, DiscoveRx, uHTS hits, dose response (AID 624129)
- assay.context: CXCR6 beta-arrestin (DiscoveRx) antagonist cell assay, CCR6, dose range 1

{"compound": "Cn1nc([N+](=O)[O-])nc1Sc1cccc2cccnc12", "IC50": "12.1 µM"}
{"compound": "O=C1C=CC(=O)N1c1cccc(-c2ccccc2)c1", "IC50": "47 µM"}
{"compound": "Fc1ccc(NC(=S)Nc2nccs2)cc1", "IC50": "10.8 µM"}
{"compound": "CCOc1ccc(NCC(=O)c2ccc(C)cc2)cc1", "IC50": "14.2 µM"}
{"compound": "Cc1ccsc1/C=C/c1ccc2cccc(O)c2n1", "IC50": "5.29 µM"}
{"compound": "COC(CNC(=O)c1cc(C(=O)c2c(-c3c(Cl)cccc3Cl)noc2C)c[nH]1)OC", "IC50": "16.9 µM"}
{"compound": "CCOc1ccc2nc(NC(=O)c3ccccn3)sc2c1", "IC50": "7.32 µM"}
{"compound": "COc1ccccc1C(=O)NNC(=S)NC(=O)c1cccs1", "IC50": "12.2 µM"}
{"compound": "CC(=O)OCCNc1cc(Sc2nc3ccccc3[nH]2)c2nonc2c1[N+](=O)[O-]", "IC50": "5.52 µM"}
{"compound": "CC(=O)OCCCNc1cc(Sc2nc3ccccc3s2)c2nonc2c1[N+](=O)[O-]", "IC50": "6.38 µM"}
{"compound": "COc1ccc(C[C@@H]2OC3(C=CC(=O)C=C3)O[C@H]2Cc2ccc(OC)cc2)cc1", "IC50": "3.92 µM"}
{"compound": "Cc1c(Cl)sn(-c2ccc(Cl)cc2)c1=O", "IC50": "3.26 µM"}
{"compound": "O=C1N[C@H](Cc2ccccc2)COC(=O)[C@H](Cc2ccc(F)cc2)CC/C=C/C[C@H]1CC(=O)N(CCO)Cc1ccccc1", "IC50": "5.96 µM"}
{"compound": "O=C(N/N=C(\\c1ccccc1)c1cccnc1)c1cccc(F)c1", "IC50": "4.35 µM"}
{"compound": "O=C(CSc1cccc2cccnc12)N1CCCC1", "IC50": "4.22 µM"}
{"compound": "CNc1cc(Cl)c2nonc2c1[N+](=O)[O-]", "IC50": "3.13 µM"}
{"compound": "Cc1[nH][nH]c(=O)c1C(c1c(C)[nH][nH]c1=O)c1cn(Cc2ccc(Cl)c(Cl)c2)c2ccccc12", "IC50": "16.6 µM"}
{"compound": "N#CC(C#N)=C1C=CC=CN1/C(=C\\c1ccco1)C(=O)c1ccccc1", "IC50": "2.91 µM"}
{"compound": "C=C1C(=O)c2sccc2C(c2ccc(OC)c(OC)c2)C1COC(C)=O (centres undefined)", "IC50": "4.58 µM"}
{"compound": "Cc1ccc(CN2C(=O)C(Cc3ccccc3)Nc3ncnc(N4CCN(c5ccccc5)CC4)c32)cc1 (centres undefined)", "IC50": "2.72 µM"}
{"compound": "CCOc1ccc(N(CC(=O)N/N=C/c2ccccn2)S(=O)(=O)c2ccc(Cl)cc2)cc1", "IC50": "11.4 µM"}
{"compound": "Oc1cccc2ccc(/C=C/c3c(F)cccc3Cl)nc12", "IC50": "5.94 µM"}
{"compound": "O=C1c2sc3nc4ccccc4n3c2C(=O)N1c1ccccc1Cl", "IC50": "16.9 µM"}
{"compound": "O=C1C(Cc2ccccc2)Nc2ncnc(N3CCN(c4ccccc4)CC3)c2N1Cc1ccc(Cl)cc1 (centres undefined)", "IC50": "3.28 µM"}
{"compound": "O=[N+]([O-])c1c(Nc2ccc(O)cc2)cc(Cl)c2nonc12", "IC50": "1.62 µM"}
{"compound": "CCOC(=O)c1c(SCCN2CCCCC2)n(-c2ccccc2)c(=S)n(-c2ccccc2)c1=O", "IC50": "4.56 µM"}
{"compound": "COc1ccc(/C=C/c2ccc3cccc(O)c3n2)c(OC)c1OC", "IC50": "3.71 µM"}
{"compound": "Cc1ccccc1Oc1cc(-n2ncc(Cl)c(Cl)c2=O)ncn1", "IC50": "1.27 µM"}
{"compound": "O=[N+]([O-])c1c(Nc2cccc(O)c2)cc(Cl)c2nonc12", "IC50": "12.2 µM"}
{"compound": "CC1(C)CC(=O)C2=C(C1)OC1=C(C(=O)CC(C)(C)C1)C2c1ccc(O)cc1O", "IC50": "4.66 µM"}
{"compound": "O=[N+]([O-])c1c(NCCCO)cc(Sc2ccc(Cl)cc2)c2nonc12", "IC50": "2.58 µM"}
{"compound": "C=CS(=O)(=O)c1c2cc(OC)ccc2nc2ccc(OC)cc12", "IC50": "10.8 µM"}
{"compound": "CCc1ccccc1OCC(=O)Nc1nc(-c2cccnc2)cs1", "IC50": "6.24 µM"}
{"compound": "CNC(=O)c1nnsc1S(=O)(=O)c1ccc(Cl)cc1", "IC50": "10.5 µM"}
{"compound": "O=C1C=CC(=O)N1Cc1ccccc1", "IC50": "6.91 µM"}
{"compound": "O=C1C=CC(=O)N1c1ccc(-c2nc3ccccc3o2)cc1", "IC50": "2.84 µM"}
{"compound": "S=C(N/N=C/c1ccccc1)N1CCOCC1", "IC50": "5.59 µM"}
{"compound": "Cc1c(Nc2cc(Cl)c3nonc3c2[N+](=O)[O-])c(=O)n(-c2ccccc2)n1C", "IC50": "3.16 µM"}
{"compound": "Cc1ccc2c(C)ccc(O)c2n1", "IC50": "4.94 µM"}
{"compound": "C=CCn1nc([N+](=O)[O-])nc1Sc1cccc2cccnc12", "IC50": "39 µM"}
{"compound": "Oc1c(I)cc(Cl)c2cccnc12", "IC50": "5.29 µM"}
{"compound": "COc1ccc(OC)c(NC(=O)c2nc(S(=O)(=O)Cc3ccccc3)ncc2Cl)c1", "IC50": "7.57 µM"}
{"compound": "CCC(C)c1ccc(O)c(NC(=S)NC(=O)c2cccnc2)c1 (centres undefined)", "IC50": "7.67 µM"}
{"compound": "O=C(Nc1nnc(SCc2ccc(F)cc2)s1)c1ccccn1", "IC50": "4.29 µM"}
